Biological target: EGFR(L858R_T790M_C797S) (aa695-end, Invitrogen) (Homo sapiens, UniProt P00533, C797S/L858R/T790M)
Sequence (P00533 695-1210 T790M/C797S/L858R): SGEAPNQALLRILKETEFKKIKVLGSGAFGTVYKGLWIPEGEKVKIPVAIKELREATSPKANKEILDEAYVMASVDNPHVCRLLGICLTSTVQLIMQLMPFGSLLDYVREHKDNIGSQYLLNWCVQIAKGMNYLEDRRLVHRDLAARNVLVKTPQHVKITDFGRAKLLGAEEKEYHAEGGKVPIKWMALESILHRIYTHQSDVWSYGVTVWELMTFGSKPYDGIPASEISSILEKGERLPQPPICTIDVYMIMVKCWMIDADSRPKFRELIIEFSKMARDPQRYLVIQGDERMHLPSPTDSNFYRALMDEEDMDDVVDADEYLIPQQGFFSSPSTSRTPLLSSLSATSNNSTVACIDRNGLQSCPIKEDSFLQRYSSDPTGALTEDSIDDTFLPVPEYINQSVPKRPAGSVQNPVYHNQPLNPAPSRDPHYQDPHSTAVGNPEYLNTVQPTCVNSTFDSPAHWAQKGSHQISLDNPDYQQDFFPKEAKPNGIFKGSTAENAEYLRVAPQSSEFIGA
Assay: Biochemical EGFR inhibition assay (TR-FRET), L858R/T790M/C797S mutant
Conditions: ATP at Km, 15 min pre-incubation, 60 min reaction; read-out: LR_TM_CS (Km ATP) IC50
test_readout: pIC50
Expect pIC50 as a plain number equal to -log10 of the molar concentration.

Record request: pIC50 value, item COc1cc(N2CCC(N3CCN(C)CC3)CC2)ccc1Nc1ncc(Cl)c(Nc2cccc3c2N(S(C)(=O)=O)CC3)n1 [Example 30]
9.52

Given the compound CCN1CCN(C2CCN(c3cc(F)c(Nc4ncc(Br)c(Nc5cccc6c5N(S(C)(=O)=O)CC6)n4)cc3F)CC2)CC1 [Example 185] , what is its reported pIC50?
9.52

May I ask what pIC50 has been recorded for COc1cc(N2CCC(N3CCN(C)CC3)CC2)ccc1Nc1nc(Nc2cccc3c2N(S(C)(=O)=O)CC3)c2[nH]ccc2n1 [Example 71] ?
6.84

pIC50 for CN(C)C1CCN(c2ccc(Nc3ncc(Br)c(Nc4cccc5c4N(S(C)(=O)=O)CC5)n3)c3c2CC(C)(C)O3)CC1 [Example 55] ?
8.15

Given the entry CN1CCN(C2CCN(c3ccc(Nc4ncc(Br)c(Nc5cccc6c5N(S(C)(=O)=O)CC6)n4)c4c3CC(C)(C)O4)CC2)CC1 [Example 57] , report its measured pIC50.
7.77

Look up pIC50: COc1cc(N2CCN(C)[C@@H](C)C2)c(C)cc1Nc1nc(Nc2cccc3c2N(S(C)(=O)=O)CC3)c2cc[nH]c2n1 [Example 105]
8.28

Would you mind telling me what pIC50 value was observed for COc1cc(N2CCC(N3CCN(C)CC3)CC2)ccc1Nc1ncc(Br)c(Nc2cccc3c2N(S(C)(=O)=O)C2(CC2)C3)n1 [Example 136] ?
9.52

What does the record list as pIC50 for COc1cc(N2CCC(N3CCN(C)CC3)CC2)c(C)cc1Nc1nc(Nc2cccc3c2N(S(C)(=O)=O)CC3)c2cc[nH]c2n1 [Example 91] ?
9.38

Please look up its pIC50: CN(C)C1CCN(c2ccc(Nc3ncc(Br)c(Nc4cccc5c4N(S(C)(=O)=O)CC5)n3)c3c2CCO3)CC1 [Example 48]
9.52
